# credit: patent US9309242B2

Biological target: FGFR4 (h) (Homo sapiens, UniProt P22455)
Sequence (P22455 22-802): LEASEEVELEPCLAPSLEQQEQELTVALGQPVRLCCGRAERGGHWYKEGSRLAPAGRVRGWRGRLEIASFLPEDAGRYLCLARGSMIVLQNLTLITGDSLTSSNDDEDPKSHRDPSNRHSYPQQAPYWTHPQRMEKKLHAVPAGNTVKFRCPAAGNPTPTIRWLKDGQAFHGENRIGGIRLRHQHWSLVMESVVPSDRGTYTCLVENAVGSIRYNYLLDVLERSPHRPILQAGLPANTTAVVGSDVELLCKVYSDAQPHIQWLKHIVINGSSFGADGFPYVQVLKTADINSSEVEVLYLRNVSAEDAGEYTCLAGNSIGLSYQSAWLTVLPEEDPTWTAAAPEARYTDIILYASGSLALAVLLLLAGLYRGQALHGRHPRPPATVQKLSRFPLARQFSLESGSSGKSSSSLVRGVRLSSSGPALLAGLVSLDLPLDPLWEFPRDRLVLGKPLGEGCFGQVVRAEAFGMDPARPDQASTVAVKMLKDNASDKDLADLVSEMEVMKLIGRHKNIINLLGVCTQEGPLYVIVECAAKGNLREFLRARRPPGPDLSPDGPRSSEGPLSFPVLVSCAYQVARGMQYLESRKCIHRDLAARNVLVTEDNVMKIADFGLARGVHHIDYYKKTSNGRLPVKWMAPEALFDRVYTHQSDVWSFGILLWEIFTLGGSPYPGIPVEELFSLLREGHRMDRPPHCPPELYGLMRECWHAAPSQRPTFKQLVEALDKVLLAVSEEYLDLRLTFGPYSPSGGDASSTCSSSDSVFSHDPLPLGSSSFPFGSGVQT
Test: FGFR4 (enzymatic assay), TR-FRET
Format: biochemical
Conditions: FGFR 4 pIC50, enzymatic assay; average values if tested multiple times
observation type: pIC50
Give bare numbers, as −log10 of the molar value.

Sample answers from the record:
- COc1cc(OC)c(F)c(N(CCCN2CCCC2=O)c2ccc3ncc(-c4cnn(C)c4)nc3n2)c1F: 8.64
- COCC(O)CN(c1ccc2ncc(-c3cnn(C)c3)nc2n1)c1cc(OC)cc(OC)c1F (single isomer, unassigned) [Compound 58]: 8.67
- CNCCn1/c(=N/c2c(Cl)ccc(OC)c2Cl)ccc2ncc(-c3cnn(C)c3)nc21: 5.45
- COc1cc(OC)c(F)c(N(CCNC(C)C)c2ccc3ncc(-c4cnn(C)c4)nc3n2)c1: 8.10
- COc1cc(OC)c(F)c(N(Cc2ncc[nH]2)c2ccc3ncc(-c4cnn(Cc5ncc[nH]5)c4)nc3n2)c1: 8.89
- COc1cc(OC)cc(N(Cc2ncc[nH]2)c2ccc3ncc(-c4cnn(C)c4)nc3n2)c1 [Compound 24]: 9.13

Give one value of pIC50 per listed compound.
1. COc1cc(OC)c(F)c(/N=c2\ccc3ncc(-c4cnn(C)c4)nc3n2CC2CCC(=O)N2)c1F (stereo not shown) [Compound 47]
2. COc1cc(OC)c(F)c(N(CC(O)COC(C)C)c2ccc3ncc(-c4cnn(C)c4)nc3n2)c1F (stereo not shown) [Compound 61]

Response:
[8.84, 8.39]

Give one value of pIC50 per listed compound.
1. COc1cc(/N=c2\ccc3ncc(-c4cnn(C)c4)nc3n2CCCO)cc(OC)c1
2. COc1cc(OC)c(F)c(N(CC(O)COC(C)C)c2ccc3ncc(-c4cnn(C)c4)nc3n2)c1 (single isomer, unassigned) [Compound 78]
3. CNCCN(c1ccc2ncc(-c3cnn(C)c3)nc2n1)c1cc(OC)cc(OC)c1F
4. COc1cc(OC)c(F)c(N(Cc2ncc[nH]2)c2ccc3ncc(-c4cnn(C)c4)nc3n2)c1F
5. COc1cc(OC)c(F)c(N(CC2COC(=O)N2)c2ccc3ncc(-c4cnn(C)c4)nc3n2)c1 (single isomer, unassigned)

Response:
1: 9.40; 2: 8.60; 3: 7.96; 4: 8.45; 5: 8.80

====

Biological target: UniProt P22607
Sequence (P22607 23-806): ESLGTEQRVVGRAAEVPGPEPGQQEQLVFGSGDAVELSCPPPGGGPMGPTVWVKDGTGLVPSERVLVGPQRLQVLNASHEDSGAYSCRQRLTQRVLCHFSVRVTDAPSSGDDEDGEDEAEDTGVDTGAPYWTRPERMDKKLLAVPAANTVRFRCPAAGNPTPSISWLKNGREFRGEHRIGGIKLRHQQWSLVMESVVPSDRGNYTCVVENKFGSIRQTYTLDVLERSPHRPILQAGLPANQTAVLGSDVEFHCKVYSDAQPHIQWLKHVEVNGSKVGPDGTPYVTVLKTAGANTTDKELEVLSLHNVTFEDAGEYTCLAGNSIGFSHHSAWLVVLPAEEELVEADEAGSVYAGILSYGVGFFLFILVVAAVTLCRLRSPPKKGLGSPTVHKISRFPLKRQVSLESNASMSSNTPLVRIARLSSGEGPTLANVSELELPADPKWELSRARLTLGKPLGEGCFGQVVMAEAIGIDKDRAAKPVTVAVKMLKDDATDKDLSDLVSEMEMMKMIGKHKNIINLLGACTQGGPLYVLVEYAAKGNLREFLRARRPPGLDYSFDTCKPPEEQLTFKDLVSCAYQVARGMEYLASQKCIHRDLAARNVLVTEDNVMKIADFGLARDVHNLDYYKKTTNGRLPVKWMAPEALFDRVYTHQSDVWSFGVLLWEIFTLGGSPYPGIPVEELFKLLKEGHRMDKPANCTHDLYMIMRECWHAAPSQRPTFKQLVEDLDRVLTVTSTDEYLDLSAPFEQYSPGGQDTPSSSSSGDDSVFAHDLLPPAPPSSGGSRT
Experiment: FGFR3 (enzymatic assay), TR-FRET
Assay type: biochemical
Conditions: read-out: FGFR 3 pIC50 (converted)
Threshold-based label: IC50 under 2 nM gives Met, IC50 not under 2 nM gives Not met.

Known results for compounds:
• COc1cc(OC)c(F)c(/N=c2\ccc3ncc(-c4cnn(C)c4)nc3n2CC2CC2)c1F (single isomer, unassigned) [Compound 267] = Not met
• COc1cc(OC)c(F)c(N(Cc2nncn2C)c2ccc3ncc(-c4cnn(C)c4)nc3n2)c1 [Compound 132] = Not met
• COc1cc(OC)c(F)c(N(Cc2nn[nH]n2)c2ccc3ncc(-c4cnn(C)c4)nc3n2)c1 [Compound 140] = Not met
• COc1cc(OC)c(C)c(N(Cc2ncc[nH]2)c2ccc3ncc(-c4cnn(C)c4)nc3n2)c1 [Compound 273] = Not met
• COc1cc(/N=c2\ccc3ncc(-c4cnn(C)c4)nc3n2CCN2CCOCC2)cc(OC)c1 [Compound 147] = Met

Prompt: Is IC50 strictly under 2 nM for the entry COc1cc(OC)c(F)c(N(CC2CCOC2)c2ccc3ncc(-c4cnn(C)c4)nc3n2)c1 (single isomer, unassigned) [Compound 170] ?
Response: Not met

Prompt: Is IC50 strictly under 2 nM for the entry COc1cc(OC)c(F)c(N(CCNC(C)=O)c2ccc3ncc(-c4cnn(C)c4)nc3n2)c1 [Compound 242] ?
Response: Met
